Molecular target: LecB (Pseudomonas aeruginosa, UniProt Q9HYN5)
Sequence (Q9HYN5 entry or part of it): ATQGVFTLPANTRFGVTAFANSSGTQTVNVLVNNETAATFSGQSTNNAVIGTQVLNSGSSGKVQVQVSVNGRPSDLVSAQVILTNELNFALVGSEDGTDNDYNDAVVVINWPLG
Assay: Competitive binding assay based on fluorescence polarization, LecB
quantity-kind: pIC50
Note on pIC50: it is the negative log10 of concentration, concentration in mol/L.

Request: Supply pIC50 value. Item: C#Cc1ccc(S(=O)(=O)NC[C@H]2O[C@@H](C)[C@@H](O)[C@@H](O)[C@@H]2O)s1
Response: 5.62

----------
System: P. aeruginosa PAO1 biofilm aggregates
Assay: In vitro biofilm staining under static conditions (CLSM)
Type: cell-based, Pseudomonas aeruginosa
Conditions: 10 μM probe
quantity-kind: Staining of biofilm aggregates

Request: Supply Staining of biofilm aggregates value. Item: O=C1OC2(c3ccc(O)cc3Oc3cc(O)ccc32)c2ccc(NC(=S)NCCOCCOCCOCCn3cc(CNc4cccc(S[C@@H]5O[C@H](CO)[C@H](O)[C@H](O)[C@H]5O)c4)nn3)cc21
Response: showed staining

Request: Supply Staining of biofilm aggregates value. Item: O=C1OC2(c3ccc(O)cc3Oc3cc(O)ccc32)c2ccc(NC(=S)NCCOCCOCCOCCn3cc(CNc4ccc(S[C@@H]5O[C@H](CO)[C@H](O)[C@H](O)[C@H]5O)cc4)nn3)cc21
Response: showed staining
